From: paper PMC9482650

System Under Test: T1, DLG3_2, Q92796
T1 sequence (Q92796 221-321, limits assumed, looked up): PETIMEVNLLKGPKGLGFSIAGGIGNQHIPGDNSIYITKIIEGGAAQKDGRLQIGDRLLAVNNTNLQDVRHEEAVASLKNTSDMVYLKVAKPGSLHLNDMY
Experiment Summary: holdup assay
Parameters: key: below the threshold = too weak to quantify, mostly under pKd 3.1 to 4
Run Conditions: plain residues with an end cap or a label only (N-terminal biotin on a linker: ado-ado)

Binder: LGRSTPQSEV [DGKH, Q86XP1]
pKd: below the threshold

Binder: SKSNFGSEPL [KIF17, Q9P2E2]
pKd: below the threshold

Binder: PLSPEQPTKL [TRIM50, Q86XT4]
pKd: below the threshold
